# system: mu-opioid receptor (MOR) (Rattus norvegicus, UniProt P33535)
# Construct: Rat cortices were homogenized using 50 mM Tris, pH 7.4, and centrifuged at 16,500 rpm for 10 min; from tissue; host or cells: rat cortex membranes
# assay: MOR radioligand competition binding assay ([3H]-DAMGO)
# setup-conditions: Mu screening results, mean of Exp 1 and Exp 2; unit inferred; read-out: MEAN (Ki)
readout: Ki (nM)
Field: numeric (nM). Do not append units.

# sample-smiles, readout, readout-value
data = [
    ("CC(C)C[C@@H](CN1C(=N)NC[C@@H]1C)N1C[C@H](Cc2ccccc2)NC1=N", "Ki", 6510),
    ("N=C1NC[C@H](Cc2ccc(O)cc2)N1C[C@H](Cc1ccc(O)cc1)N1C[C@H](Cc2ccc(O)cc2)NC1=N", "Ki", 256),
    ("CC(C)C[C@H]1CN([C@@H](CC(C)C)CN2C(=N)NC[C@@H]2Cc2ccc(O)cc2)C(=N)N1", "Ki", 981),
]

Please report the recorded Ki for CC(C)C[C@H]1CN([C@@H](CC(C)C)CN2C(=N)NC[C@@H]2Cc2ccccc2)C(=N)N1 .
3010

###

Attribute: Ki
# system: mu-opioid receptor (MOR) (Rattus norvegicus)
# Construct: Rat cortices were homogenized using 50 mM Tris, pH 7.4, and centrifuged at 16,500 rpm for 10 min; from tissue; host or cells: rat cortex membranes
# assay: MOR radioligand competition binding assay ([3H]-DAMGO)
# setup-conditions: Mu screening results, experiment 2; unit inferred; read-out: Ki (Exp 2)
Field: numeric (µM). Do not append units.

# sample-smiles, system, Ki [µM]
measured = [
    ("Cc1cc(O)cc(C)c1C[C@H]1CN([C@@H](CC(C)C)CN2C(=N)NC[C@@H]2Cc2ccccc2)C(=N)N1", "mu-opioid receptor (MOR) (Rattus norvegicus)", 0.0659),
]

Please report the recorded Ki for Cc1cc(O)cc(C)c1C[C@H]1CN([C@@H](Cc2c(C)cc(O)cc2C)CN2C(=N)NC[C@@H]2Cc2c(C)cc(O)cc2C)C(=N)N1 .
0.088

Please report the recorded Ki for Cc1cc(O)cc(C)c1C[C@H]1CN([C@@H](Cc2c(C)cc(O)cc2C)CN2C(=N)NC[C@@H]2Cc2ccccc2)C(=N)N1 .
0.0767

###

# system: kappa-opioid receptor (KOR) (Cavia porcellus, UniProt P41144)
# Construct: Guinea pig cortices and cerebella were homogenized using 50 mM Tris, pH 7.4; from tissue; host or cells: guinea pig cortex and cerebellum membranes
# assay: KOR radioligand competition binding assay ([3H]U69,593)
# Design: species or system guinea pig
# setup-conditions: Kappa screening results, mean of Exp 1 and Exp 2; unit inferred; read-out: MEAN (Ki)
readout: pKi
In plain terms, pKi is the concentration in mol/L turned into minus its base-10 logarithm.

# sample-smiles, pKi
data = [
    ("Cc1cc(O)cc(C)c1C[C@H]1CN([C@@H](Cc2c(C)cc(O)cc2C)CN2C(=N)NC[C@@H]2Cc2c(C)cc(O)cc2C)C(=N)N1", 5.66),
    ("Cc1cc(O)cc(C)c1C[C@@H](CN1C(=N)NC[C@@H]1C)N1C[C@H](Cc2ccc(O)cc2)NC1=N", 6.57),
    ("CC(C)C[C@@H](CN1C(=N)NC[C@@H]1C)N1C[C@H](Cc2ccc(O)cc2)NC1=N", 4.91),
    ("Cc1cc(O)cc(C)c1C[C@H]1CN([C@@H](Cc2ccccc2)CN2C(=N)NC[C@@H]2C)C(=N)N1", 5.93),
    ("Cc1cc(O)cc(C)c1C[C@H]1CN([C@@H](CC(C)C)CN2C(=N)NC[C@@H]2Cc2c(C)cc(O)cc2C)C(=N)N1", 6.44),
]

State its pKi on kappa-opioid receptor (KOR) (Cavia porcellus, UniProt P41144): Cc1cc(O)cc(C)c1C[C@H]1CN([C@@H](CC(C)C)CN2C(=N)NC[C@@H]2Cc2ccc(O)cc2)C(=N)N1
5.95

State its pKi on kappa-opioid receptor (KOR) (Cavia porcellus, UniProt P41144): CC(C)C[C@@H](CN1C(=N)NC[C@@H]1Cc1ccc(O)cc1)N1C[C@H](Cc2ccc(O)cc2)NC1=N
4.84

State its pKi on kappa-opioid receptor (KOR) (Cavia porcellus, UniProt P41144): C[C@H]1CNC(=N)N1C[C@H](Cc1ccccc1)N1C[C@H](Cc2ccc(O)cc2)NC1=N
5.11

State its pKi on kappa-opioid receptor (KOR) (Cavia porcellus, UniProt P41144): C[C@H]1CNC(=N)N1C[C@H](Cc1ccccc1)N1C[C@H](Cc2ccccc2)NC1=N
4.82

State its pKi on kappa-opioid receptor (KOR) (Cavia porcellus, UniProt P41144): N=C1NC[C@H](Cc2ccccc2)N1C[C@H](Cc1ccccc1)N1C[C@H](Cc2ccccc2)NC1=N
4.80

State its pKi on kappa-opioid receptor (KOR) (Cavia porcellus, UniProt P41144): CC(C)C[C@@H](CN1C(=N)NC[C@@H]1Cc1ccc(O)cc1)N1C[C@H](Cc2ccccc2)NC1=N
5.31

State its pKi on kappa-opioid receptor (KOR) (Cavia porcellus, UniProt P41144): Cc1cc(O)cc(C)c1C[C@H]1CN([C@@H](CC(C)C)CN2C(=N)NC[C@@H]2C)C(=N)N1
5.79
